Assay Summary: cAMP Responsive Elements (CRE) small molecule agonists, cell-based qHTS assay: qHTS cell viability counter screen (AID 2060914);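 note: viability read after 3 h of compound exposure; nearly all actives have a fitted effect of over 50% in size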
Measurement Parameters: CRE-bla HEK293T viability, CellTiter-Glo luminescence, 5 h; series mostly up to 92.4 µM
Records with an inconclusive call do not appear. The source made the active and inactive calls. Calls come from the whole dose curve; as a rule, active = well fitted cell-killing curve with a large enough effect in the repeat runs; inconclusive = weak or mixed curves, or effect the other way; inactive = flat fitted curve, though single readings scatter.
Thanks in advance; please answer with one of these: active, inactive

Worked set:
Cl[C@H]1OCCO[C@@H]1Cl    inactive
O=C(O)C1C2CCC(O2)C1C(=O)O (stereo not drawn)    inactive
FC(F)C(F)(F)OCC(Cn1cncn1)c1ccc(Cl)cc1Cl (stereo not drawn)    inactive
CNC(=O)CSP(=O)(OC)OC    inactive
CNC(=O)O/N=C(/CSC)C(C)(C)C    inactive
C=CC(=O)OCC(C)C    inactive
CC(Oc1ccc(Oc2ncc(C(F)(F)F)cc2Cl)cc1)C(=O)O (stereo not drawn)    inactive
O=C(Nc1ccccc1)c1ccccc1I    inactive

Input line: What did the test return for "O=[N+]([O-])c1cc(C(F)(F)F)c(Cl)c([N+](=O)[O-])c1Cl" ?
Output line: inactive

Input line: What did the test return for "S=C=NCCc1ccccc1" ?
Output line: inactive

Input line: What did the test return for "ClCc1cccc(Cl)c1" ?
Output line: inactive

Input line: What did the test return for "CCC(=O)O[C@H]1CC[C@H]2[C@@H]3CCC4=CC(=O)CC[C@]4(C)[C@H]3CC[C@]12C" ?
Output line: inactive
